Molecular target: prolyl 4-hydroxylase beta polypeptide (P4HB) (Homo sapiens, UniProt P07237)
Sequence (P07237 18-508): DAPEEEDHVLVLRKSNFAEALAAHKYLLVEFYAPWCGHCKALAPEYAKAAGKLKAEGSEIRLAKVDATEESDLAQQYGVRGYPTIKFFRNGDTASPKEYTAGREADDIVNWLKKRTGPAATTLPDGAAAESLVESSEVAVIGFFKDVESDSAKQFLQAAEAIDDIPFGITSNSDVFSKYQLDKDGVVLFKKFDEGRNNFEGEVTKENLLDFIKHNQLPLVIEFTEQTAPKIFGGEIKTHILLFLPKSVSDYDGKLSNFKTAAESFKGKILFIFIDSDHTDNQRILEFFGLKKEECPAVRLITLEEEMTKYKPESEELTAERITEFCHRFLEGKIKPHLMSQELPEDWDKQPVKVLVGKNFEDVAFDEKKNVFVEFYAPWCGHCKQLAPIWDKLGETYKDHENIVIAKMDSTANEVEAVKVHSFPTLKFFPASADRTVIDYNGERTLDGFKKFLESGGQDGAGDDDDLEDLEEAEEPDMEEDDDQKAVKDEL
Metric name: Kd (µM)
Response body: numeric value in µM, unit text excluded.

[in] What Kd value was documented for this compound, OC[C@H]1O[C@@H](OCCc2ccc(O)cc2)[C@H](O)[C@@H](O)[C@@H]1O [SAL, Salidroside] ?
[out] 13.8
